- System: 377384-186-R-J1-PDC complex spheroid viability
- TEST_DETAILS: Anticancer human tumor 377384-186-R-J1-PDC patient-derived pancreatic carcinoma cell line growth inhibition [RAS]; active = viability on the fitted dose curve at most 10% of control; inactive = the rest
- ASSAY_SETUP: second compound 0.00949 µM; first compound 1 µM
Outcome codes: t (active), f (inactive)

MOLECULE | EXPERIMENTAL_TARGET | ASSIGNED_CATEGORY
CCN1CCN(Cc2ccc(Nc3ncc(F)c(-c4cc(F)c5nc(C)n(C(C)C)c5c4)n3)nc2)CC1 + CCn1c(-c2cc(N3CCN(C)CC3)cnc2C(C)OC)c2c3cc(ccc31)-c1csc(n1)CC(NC(=O)C1CC1C)C(=O)N1CCCC(N1)C(=O)OCC(C)(C)C2 | 377384-186-R-J1-PDC complex spheroid viability | t
NC1c2ccccc2OC12CCN(c1cnc3c(N4CCCc5ncccc54)n[nH]c3n1)CC2 (centres undefined) + CCn1c(-c2cccnc2C(C)OC)c2c3cc(ccc31)N1CCOC(CC(NC(=O)C(C(C)C)N(C)C(=O)C3(F)CCN(C(=O)C#CC(C)(C)N(C)C)CC3)C(=O)N3CCCC(N3)C(=O)OCC(C)(C)C2)C1 | 377384-186-R-J1-PDC complex spheroid viability | f
O=C(c1ccc(F)c(F)c1Nc1ccc(I)cc1F)N1CC(O)([C@@H]2CCCCN2)C1 + CCn1c(-c2cc(N3CCN(C)CC3)cnc2C(C)OC)c2c3cc(ccc31)-c1csc(n1)CC(NC(=O)C1CC1C)C(=O)N1CCCC(N1)C(=O)OCC(C)(C)C2 | 377384-186-R-J1-PDC complex spheroid viability | t
CC(Nc1ccc2c(c1)OCCn1cc(N3C(=O)OCC3C(F)F)nc1-2)C(N)=O (centres undefined) + CCn1c(-c2cc(N3CCN(C)CC3)cnc2C(C)OC)c2c3cc(ccc31)-c1csc(n1)CC(NC(=O)C1CC1C)C(=O)N1CCCC(N1)C(=O)OCC(C)(C)C2 | 377384-186-R-J1-PDC complex spheroid viability | t

====

- System: 377384-186-R-J1-PDC complex spheroid viability
- TEST_DETAILS: Anticancer human tumor 377384-186-R-J1-PDC cell line growth inhibition [RAS];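 note: spheroids exposed to compounds for seven days before readout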
- ASSAY_SETUP: second compound 0.003 µM; first compound 0.1 µM; active compounds read low

COMPOUND | viability, T/C [%]
C=CC(=O)Nc1cc(Nc2nccc(-c3cn(C)c4ccccc34)n2)c(OC)cc1N(C)CCN(C)C + CCn1c(-c2cccnc2C(C)OC)c2c3cc(ccc31)N1CCOC(CC(NC(=O)C(C(C)C)N(C)C(=O)C3(F)CCN(C(=O)C#CC(C)(C)N(C)C)CC3)C(=O)N3CCCC(N3)C(=O)OCC(C)(C)C2)C1 | 80
Cc1nc(N2CCC3(CC2)COC(C)C3N)c(CO)nc1Sc1ccnc(N)c1Cl (configuration not stated) + CCn1c(-c2cccnc2C(C)OC)c2c3cc(ccc31)N1CCOC(CC(NC(=O)C(C(C)C)N(C)C(=O)C3(F)CCN(C(=O)C#CC(C)(C)N(C)C)CC3)C(=O)N3CCCC(N3)C(=O)OCC(C)(C)C2)C1 | 97.7
CC1(O)CCCC1n1c(=O)c(C(F)F)cc2cnc(NC3CCN(S(C)(=O)=O)CC3)nc21 (configuration not stated) + CCn1c(-c2cccnc2C(C)OC)c2c3cc(ccc31)N1CCOC(CC(NC(=O)C(C(C)C)N(C)C(=O)C3(F)CCN(C(=O)C#CC(C)(C)N(C)C)CC3)C(=O)N3CCCC(N3)C(=O)OCC(C)(C)C2)C1 | 52.7
CC(C)n1nc(-c2ccc3oc(N)nc3c2)c2c(N)ncnc21 + CCn1c(-c2cccnc2C(C)OC)c2c3cc(ccc31)N1CCOC(CC(NC(=O)C(C(C)C)N(C)C(=O)C3(F)CCN(C(=O)C#CC(C)(C)N(C)C)CC3)C(=O)N3CCCC(N3)C(=O)OCC(C)(C)C2)C1 | 98.4
CC(=O)OC12COC1CC(O)C1(C)C(=O)C(O)C3=C(C)C(OC(=O)C(O)C(NC(=O)OC(C)(C)C)c4ccccc4)CC(O)(C(OC(=O)c4ccccc4)C21)C3(C)C (configuration not stated) + CCn1c(-c2cccnc2C(C)OC)c2c3cc(ccc31)N1CCOC(CC(NC(=O)C(C(C)C)N(C)C(=O)C3(F)CCN(C(=O)C#CC(C)(C)N(C)C)CC3)C(=O)N3CCCC(N3)C(=O)OCC(C)(C)C2)C1 | 15.1
CC1(O)CCCC1n1c(=O)c(C(F)F)cc2cnc(NC3CCN(S(C)(=O)=O)CC3)nc21 (configuration not stated) + CCn1c(-c2cc(N3CCN(C)CC3)cnc2C(C)OC)c2c3cc(ccc31)-c1csc(n1)CC(NC(=O)C1CC1C)C(=O)N1CCCC(N1)C(=O)OCC(C)(C)C2 | 10.9
CCC(CC)c1cc(NC2CCC(N)C2)n2nccc2n1 (configuration not stated) + CCn1c(-c2cc(N3CCN(C)CC3)cnc2C(C)OC)c2c3cc(ccc31)-c1csc(n1)CC(NC(=O)C1CC1C)C(=O)N1CCCC(N1)C(=O)OCC(C)(C)C2 | 16.6
